// provenance: patent US20220162331A1

- Assayed target: T1, human CD73 on Calu6 cells (human, UniProt P21589 27-549)
- T1 sequence (looked up): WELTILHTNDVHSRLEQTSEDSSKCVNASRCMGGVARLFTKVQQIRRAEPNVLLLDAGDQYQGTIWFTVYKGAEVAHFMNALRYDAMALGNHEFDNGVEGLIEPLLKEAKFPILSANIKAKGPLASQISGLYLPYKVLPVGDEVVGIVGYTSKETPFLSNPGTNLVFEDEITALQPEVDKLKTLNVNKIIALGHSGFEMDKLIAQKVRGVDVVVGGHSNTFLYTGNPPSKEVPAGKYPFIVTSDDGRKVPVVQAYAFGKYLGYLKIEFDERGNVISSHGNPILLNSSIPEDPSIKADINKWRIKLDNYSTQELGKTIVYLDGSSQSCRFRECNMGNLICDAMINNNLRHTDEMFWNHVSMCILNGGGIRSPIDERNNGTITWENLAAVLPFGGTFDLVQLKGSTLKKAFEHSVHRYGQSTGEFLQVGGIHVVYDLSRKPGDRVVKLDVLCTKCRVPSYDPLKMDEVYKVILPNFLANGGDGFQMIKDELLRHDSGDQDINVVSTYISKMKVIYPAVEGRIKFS
- Test method notes: cell-based or functional assay
Assay endpoint: CD73 endocytosis ratio %, 60 minutes (%)

INSERT INTO assay_data (binder, readout_unit, recorded_result) VALUES
  ('CD73 antibody 7E10 (antibody, V domains shown, Mouse variable regions on human IgG heavy chain constant region and human kappa constant region (chimeric IgG); also called Clone 7E10) VH: QVQFQQSGAELVRPGASVKLSCKASGYIFSSYWIQWVKQRPGQGLEWIGAIYPGDGDTRYTQKFKDKATLTADKSSSTAYMQLSSLASEDSAVYYCAGFASWGQGTLVTVSA VL: DIQMTQSPSSLSASLGERVSLTCRASQDIGSSLNWLQQEPNGTIKRLIYATSSLDSGVPKRFSGSRSGSDYSLTISSLESEDFADYYCLQYASSPYTFGGGTKLEIK', '%', 25.1),
  ('CD73 antibody 2D4 (antibody, V domains shown, also called Clone 2D4) VH: EVKLVESGGGLVQPGGSLKLSCATSGFTFSDYYMYWVRQTPEKRLEWVAYISNVGGSTYYPDTVKGRFTISRDNAKNTLYLQMSRLKSEDTAIYYCARGDGYYGYYFDVWGAGTTVTVSS VL: QIVLTQSPAIMSASPGEKVTMTCSASSSVSYMHWYQQKSGTSPKRWIYDTSKLASGVPARFSGSGSGTSYSLTISSMEAEDAATYYCQQWSSNPYTFGGGTKLEIK', '%', 28.1),
  ('CD73 antibody 14H10 (antibody, V domains shown, Mouse variable regions on human IgG heavy chain constant region and human kappa constant region (chimeric IgG)) VH: QIQLQQSGAELARPGASVNLSCKASGYSFTSYWMQWLKQRPGQGLEWIGAIYPGDGDTRYTQKFKGKATLTADKSSSTAYMQLSSLASEDSAVYYCALFSYWGQGTLVTVSA VL: DIQMTQSPSSLSASLGERVSLTCRASQDIGSSLNWLQQEPDGTFKRLIYATSTLDSGVPKRFSGSRSGSDYSLTISSLESEDFVDYYCLQYASFPYTFGGGTKLEIK', '%', 33.1),
  ('CD73 antibody 6G8 (chimeric) (antibody, V domains shown, Mouse variable regions on human IgG heavy chain constant region and human kappa constant region (chimeric IgG); also called Clone 6G8; 6G8 Chimera) VH: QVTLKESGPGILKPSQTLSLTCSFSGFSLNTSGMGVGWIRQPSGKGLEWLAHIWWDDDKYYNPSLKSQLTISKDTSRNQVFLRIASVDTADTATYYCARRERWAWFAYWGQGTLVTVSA VL: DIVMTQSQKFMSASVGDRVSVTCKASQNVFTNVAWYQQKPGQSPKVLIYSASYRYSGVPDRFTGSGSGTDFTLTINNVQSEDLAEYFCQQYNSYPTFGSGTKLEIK', '%', 38.5),
  ('CD73 antibody 14E4 (antibody, V domains shown, Mouse variable regions on human IgG heavy chain constant region and human kappa constant region (chimeric IgG); also called Clone 14E4) VH: QVQLQQSGPELVKPGASVKISCKASGYIFTNYYIHWVKQRPGQGLEWIGWIFPGSGNTKYSEKFKDKATLTADTSSSTAYMQLSSLTSEDSAVYFCAGLSDWGQGTTLTVSS VL: DIQMTQSPSSLSASLGERVSLTCRASQDIGDRLIWLQQEPAGTFKRLIYATSSLDSGVPKRFSGSRSGSDYSLTISSLESEDFVDYYCLQYASSPWTFGGGTKLEIK', '%', 19.3),
  ('CD73 antibody 8A8 (antibody, V domains shown, Mouse variable regions on human IgG heavy chain constant region and human kappa constant region (chimeric IgG); also called Clone 8A8) VH: QVQFQQSGAELARPGASVKLSCKASGYIFTSYWIQWIKQRPGQGLEWIGAIYPGDGDTRYTQKFKGKATLTADKSSSTAYMQLRSLASEDSAVYYCAGFASWGQGTLLTVSA VL: DIQMTQSPSSLSASLGERVSLTCRASQDIGESLIWLQQEPDGTIKRLIYATSSLDSGVPKRFSGSRSGSDYSLSISSLESDDFVDYYCLQYSSSPYTFGGGTKLEIK', '%', 25.6),
  ('CD73 antibody 2H2 (antibody, V domains shown, also called Clone 2H2) VH: EVKLVESGGGLVQPGGSLKLSCATSGFTFSDYYMYWVRQTPEKRLEWVAYISNVGGSTYYPDTVKGRFTISRDNAKNTLYLQMSRLKSEDTAMYYCARGDGYYGYYFDVWGAGTTVTVSS VL: ENVLTQSPAIMSASPGEKVTMTCSASSSVSYMHWYQQKSGTSPKRWIYDTSKLASGVPTRFSGSGSGTSFSLTISSMEAEDAATYYCQQWSSNPYTFGGGTKLEIK', '%', 27.4);
